Please provide measured growth for the entries that follow.
test system: ACHN renal; experiment: NCI-60 one-dose screen, 48 h (100 = growth as untreated, 0 = no growth, -100 = all killed); conditions: 1 µM
The panel holds about 83,000 compounds, 20% with a hit somewhere; the sample as a whole holds those more often.
Please respond with the number in % and leave the unit unwritten.

Query :: Entry `CC/C(=C(/c1ccc(O)cc1)c1ccc(OCCN(C)C(=O)COCCOCCNC(=O)c2ccc3c(c2)CN([C@@H]2CCC(=O)NC2=O)C3=O)cc1)c1ccccc1` has what growth?
Result :: 104

Query :: Entry `CC/C(=C(/c1ccc(O)cc1)c1ccc(OCCN(C)C(=O)CCOCCNC(=O)Cc2ccc3c(c2)CN([C@@H]2CCC(=O)NC2=O)C3=O)cc1)c1ccccc1` has what growth?
Result :: 103

Query :: Entry `CC/C(=C(\c1ccc(O)cc1)c1ccc(OCCN(C)C(=O)CCOCCNC(=O)c2ccc3c(c2)CN([C@@H]2CCC(=O)NC2=O)C3=O)cc1)c1ccccc1` has what growth?
Result :: 103

Query :: Entry `CC/C(=C(\c1ccc(O)cc1)c1ccc(OCCNC)cc1)c1ccccc1` has what growth?
Result :: 98.4

Query :: Entry `CC/C(=C(/c1ccc(O)cc1)c1ccc(OCCN(C)C(=O)COCCOCCNC(=O)Cc2ccc3c(c2)CN([C@@H]2CCC(=O)NC2=O)C3=O)cc1)c1ccccc1` has what growth?
Result :: 102

---

tested on: HOP-92 NSCLC; experiment: NCI-60 one-dose screen, 48 h (100 = growth as untreated, 0 = no growth, -100 = all killed); conditions: 10 µM unless noted
The panel holds about 83,000 compounds, 20% with a hit somewhere; the sample as a whole holds those more often.
Kindly return label 1 if reported growth is no lower than 20%; return label 0 if it is lower.

Query :: Is the recorded value of growth equal to or greater than 20% for this molecule? `Cc1ccc(-c2cc(-c3ccccc3)[nH]c(=O)c2C#N)cc1`
Result :: label 1

Query :: Is the recorded value of growth equal to or greater than 20% for this molecule? `N#Cc1ccc(C(=O)NNC(=O)CSc2nc3sc4c(c3c(=O)n2-c2ccc(Cl)cc2)CCCC4)cc1`
Result :: label 1

Query :: Is the recorded value of growth equal to or greater than 20% for this molecule? N#CC1=C(c2cccs2)Nc2c(c(-c3ccccc3)nn2-c2ccccc2)C12C(=O)Nc1ccccc12 (stereo not given)
Result :: label 0

Query :: Is the recorded value of growth equal to or greater than 20% for this molecule? `CC[C@]12C=CCN3CC[C@]4(C(=C(C(=O)OC)C1)Nc1cc(OC)c([C@@H]5[C@H]6O[C@H]6[C@@]6(CC)CC(C(=O)OC)=C7Nc8cc(O)ccc8[C@@]78CCN5[C@@H]68)cc14)[C@@H]32`
Result :: label 0

Query :: Is the recorded value of growth equal to or greater than 20% for this molecule? `O=C(N/N=C/c1c[nH]c2ccccc12)Nc1ccc(F)c(Cl)c1`
Result :: label 1

Query :: Is the recorded value of growth equal to or greater than 20% for this molecule? `Cc1nn(-c2ccccc2)c2nc(C)n(C(=O)N/N=C/c3ccccc3)c(=O)c12`
Result :: label 1

Query :: Is the recorded value of growth equal to or greater than 20% for this molecule? CC1CCc2c(sc3nc(SCC(=O)c4cccc(Br)c4)n(-c4ccccc4)c(=O)c23)C1 (stereo not given)
Result :: label 1

Query :: Is the recorded value of growth equal to or greater than 20% for this molecule? `COc1c(B(O)O)cc(F)cc1-c1nc2c(F)cc3[nH]ncc3c2c2c1CCCC2`
Result :: label 0

Query :: Is the recorded value of growth equal to or greater than 20% for this molecule? O=C1CCC(N2C(=O)c3cccc(NCCOCCOCCOCCC(=O)NCCCC(=O)NC(c4ccc5c(c4)OCO5)c4cc(Cl)c5cccnc5c4O)c3C2=O)C(=O)C1 (stereo not given)
Result :: label 0

Query :: Is the recorded value of growth equal to or greater than 20% for this molecule? `COc1cc(/C=N/NC(=O)c2ccc(OCc3nc4ccc(C)cc4[nH]3)cc2)cc(OC)c1OC`
Result :: label 1

Query :: Is the recorded value of growth equal to or greater than 20% for this molecule? `C/C(=N\Nc1ccc(C(=O)O)cc1)c1cnn(-c2cc(=O)[nH]c3ccc(C)cc23)c1C`
Result :: label 0

Query :: Is the recorded value of growth equal to or greater than 20% for this molecule? `COC(=O)c1cc(C(=O)C(C)(C)C)n2c3ccccc3c3ccccc3c12`
Result :: label 1

Query :: Is the recorded value of growth equal to or greater than 20% for this molecule? `C[C@@H]1[C@H]2C[C@@H](C[C@H]1NCc1nc3ccccc3n1C1CCCCCC1)C2(C)C`
Result :: label 1

Query :: Is the recorded value of growth equal to or greater than 20% for this molecule? CC(C)(C)C(=O)C1CC(C#N)=C2C=Cc3c(ccc4ccccc34)N21 (stereo not given)
Result :: label 1

Query :: Is the recorded value of growth equal to or greater than 20% for this molecule? `CC(=O)c1c2c(c3ccc4c5ccccc5ccc4n13)C(=O)c1ccccc1C2=O`
Result :: label 1
